# experimental-details: Bronchoselectivity expressed as ratio of stimulatory activity in the right atrium (EC15) to relaxant activity in the tracheal muscle (EC50)
# Assay type: functional, Cardiac atrium
experimental-readout: Selectivity
The reply should be a number, written without any unit.

Below, 5 compounds whose answers are already recorded.
>>> value_reported("CCCn1c(=O)n(C)c(=O)c2c1ncn2CCCO")
4.4
>>> value_reported("CCCn1c(=O)n(C)c(=O)c2c1ncn2CC#N")
2.8
>>> value_reported("CCCn1c(=O)n(C)c(=O)c2[nH]cnc21")
2.1
>>> value_reported("CCCn1c(=O)n(CC(=O)O)c(=O)c2[nH]cnc21")
2.4
>>> value_reported("CCCn1c(=O)n(CCN(C)C)c(=O)c2[nH]cnc21")
37

stdin: For the compound CCCn1c(=O)n(CC(C)=O)c(=O)c2[nH]cnc21 , what Selectivity is on record?
stdout: 3.1

stdin: For the compound CCCn1c(=O)n(CCOC)c(=O)c2[nH]cnc21 , what Selectivity is on record?
stdout: 9

stdin: For the compound C=CCCn1cnc2c1c(=O)n(C)c(=O)n2CCC , what Selectivity is on record?
stdout: 1.8

stdin: For the compound CCCn1c(=O)n(CCC(=O)O)c(=O)c2[nH]cnc21 , what Selectivity is on record?
stdout: 4.7

stdin: For the compound C=CCn1c(=O)c2[nH]cnc2n(CCC)c1=O , what Selectivity is on record?
stdout: 3.4
